B1: Azoarcus group I ribozyme (parent)
chain: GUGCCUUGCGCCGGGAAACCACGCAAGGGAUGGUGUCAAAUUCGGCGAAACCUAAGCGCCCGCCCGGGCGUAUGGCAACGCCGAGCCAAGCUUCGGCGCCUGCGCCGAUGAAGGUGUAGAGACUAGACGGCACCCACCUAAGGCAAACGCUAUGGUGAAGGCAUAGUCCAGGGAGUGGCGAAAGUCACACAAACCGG

- Variants of: B1
- ASSAY_TEXT: reverse-splicing fitness (ratio to wild type); higher = more active; in vitro selection; Mg2+ level not given
Exercise: state measured reverse-splicing fitness for each of the variants provided.
Answers are plain numbers.

Recorded results for 2 variants are shown here.
VARIANT_DESIGNATION | VALUE_REPORTED
C82U C150G C169A U176A | 0.0115
A111U A120G C150A C169U U176C | 0.0205

Parameters: items (list). Returns: reverse-splicing fitness for each item.
1. C82U A120C C150A C169A U176A
2. C82G A111U A120C C150U C169G U176A
3. C82U A111G A120U A145G C150G C169G U176A
4. A111G A120U A145G U176G
5. C82G A145G C150U C169U U176A
6. C82U A111G A120C A145C C150A C169U

1. 0.0169
2. 0.0159
3. 0.0073
4. 0.124
5. 0.0145
6. 0.00924

Dear reader, for each entry below, please note its reverse-splicing fitness.
1. C82G A120U A145G C150A U176G
2. C82U A111U A120G A145U U176A
3. C82A A120G A145G C169G U176G
4. C82U A111C C150U U176C
5. C82G A111C A120U C169A
6. C82U A111G A120U A145G C150A C169A U176C
7. A111G A120C A145G C150G C169U U176A
8. C82U A111U A120U A145U C150A U176G

1. 0.00517
2. 0.012
3. 0.00359
4. 0.0667
5. 0.00474
6. 0.00365
7. 0.00706
8. 0.00252

Please report reverse-splicing fitness for every entry that follows.
1. C82A A111U A145C C150U U176G
2. C82U A120U A145G C150G C169U U176C
3. C82A A145G C150G C169U U176A
4. C82A A111C A120C A145G C150A U176C
5. C82G A111U A120G A145U C150A C169U U176G
6. C82A A111U A120U A145U C150U
7. A120G C169G U176A
8. C82U A111C A120G A145C C150U C169U U176C

1: 0.0107; 2: 0.00545; 3: 0.0117; 4: 0.0232; 5: 0.00528; 6: 0.0173; 7: 0.209; 8: 0.0072

All values here come from the RNAGym collection of RNA variant scans (doi:10.1093/molbev/msab373).
